INHIBITION for assorted compounds
System: Plasmodium berghei
Test description: Screen against P. berghei liver stage (PbLuc), transformed with Luciferase, at 10uM
Format: functional, HepG2
Assay context: tested at 10 uM
Screen size: about 69,000 compounds; about 8,600 (12%) showed an effect of 50% or more. The list comes from a sample in which strong results are over-represented; it also holds close analogues and randomly drawn compounds.
Supply the numeric figure in %, leaving out any unit text.

Some compounds with known INHIBITION results, for comparison:
- Compound: "Cc1ccc(CNCC2CCCn3ccnc32)s1 (stereo not drawn)"
  Tested system: "Plasmodium berghei"
  Readout: "INHIBITION"
  Measured result: 43.7
- Compound: "O=C1CC[C@@H](CN(Cc2ccncc2)Cc2nc(CC3CC3)no2)N1"
  Tested system: "Plasmodium berghei"
  Readout: "INHIBITION"
  Measured result: 36.6
- Compound: "CSc1ccsc1C(=O)NS(=O)(=O)c1cccc(C#N)c1"
  Tested system: "Plasmodium berghei"
  Readout: "INHIBITION"
  Measured result: 16.9
- Compound: "CN(C)CCNC(=O)C1Cc2nc(-c3ccccc3)sc2N1CC1CC1 (stereo not drawn)"
  Tested system: "Plasmodium berghei"
  Readout: "INHIBITION"
  Measured result: 24.3
- Compound: "O=C1COC2(CCN(CC3CC3)CC2)CN1c1ccccc1"
  Tested system: "Plasmodium berghei"
  Readout: "INHIBITION"
  Measured result: 36.8

Now look at this entry.
Exercise: What measured INHIBITION is associated with c1ccc(CN2CCc3ncnc(C4CC4)c3CC2)nc1 on Plasmodium berghei?
Solution: 21.1

* * *

System: Plasmodium berghei
Test description: Screen against P. berghei liver stage (PbLuc), transformed with Luciferase, at 10uM
Type: functional, HepG2
Assay context: tested at 10 uM
About 8,600 (12%) of roughly 69,000 compounds showed an effect of 50% or more. The list comes from a sample in which strong results are over-represented; it also holds close analogues and randomly drawn compounds.
Decision: INHIBITION beneath 30% gives yes (1); INHIBITION meeting or exceeding 30% gives no (0).

Known results for molecules:
- Molecule: "O=C(NCc1nncn1C1CC1)c1ccccc1OCC1CC1"
  Discrete label: "yes (1)"
- Molecule: "CS(=O)(=O)N1C[C@H]2CCC[C@@]2(COc2ccccn2)C1"
  Discrete label: "no (0)"

Exercise: For COCCOc1ccc(CNCC2CNc3cc(C)nn3C2)cn1 (stereo not drawn) , is the recorded INHIBITION below the cut-off of 30%?
Solution: yes (1)

Exercise: For CN1CCOC(C(=O)Nc2nc(-c3ccccc3F)n[nH]2)C1 (stereo not drawn) , is the recorded INHIBITION below the cut-off of 30%?
Solution: yes (1)

Exercise: For CNC(=O)C1(N2CCC[C@H]2C(=O)NC2CCCCC2)CCOCC1 , is the recorded INHIBITION below the cut-off of 30%?
Solution: yes (1)

Exercise: For Cc1ccc(C(=O)NCCNCC2CNc3ccnn3C2)cc1F (stereo not drawn) , is the recorded INHIBITION below the cut-off of 30%?
Solution: no (0)

Exercise: For Cc1cc2n(n1)CC(CNCc1cnn(-c3ccccc3)c1)CN2 (stereo not drawn) , is the recorded INHIBITION below the cut-off of 30%?
Solution: yes (1)

# credit: ChEMBL document CHEMBL4513216
